Catalogue of EC50 readings, one per entry.
- Target Entity: T1, monkey NPR1 on HEK293/mfNPR1 cells in the presence of 10 nM hANP (monkey (Macaca fascicularis); human)
- T1 construct: also called HEK293/mfNPR1 +10 nM hANP
- T1 sequence (P01160 124-151): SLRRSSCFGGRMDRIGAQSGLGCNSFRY
- Protocol Notes: ECL cell-binding immunoassay (MSD), HEK293/mfNPR1, +10 nM hANP
Give just the number in nM; leave the unit off.

INSERT INTO assay_data (binder, experimental_result) VALUES
  ('REGN7544 (antibody, human IgG4 S228P, kappa, V domains shown, also called mAb38072) VH: EVQLVESGGGLVQPGGSLRLSCAASGFSFVSYVMGWVRQAPGKGLEWVSSISGSLTNTYYADPVKGRFTISRDNSKNTLYLQMNSLRAEDTAAYYCVTYDILTGHLFDYWGQGTLVTVSS VL: AIQMTQSPSSLSASVGDRVTITCRSSQGIRNDFGWYQQKPGKAPKLLIYAASRLQSGVPSRFSGSGSGTDFTLTINNLQPEDFATYYCLQDYTYPFTFGPGTKVDIKR', 4.2),
  ('REGN7541 (antibody, human IgG4 S228P, kappa, V domains shown, also called mAb38067) VH: EVQLVESGGGLVQPGGSLRLSCAASGFTFSSYAMSWVRQAPGKGLEWVSTISGSGTNTYYADSVKGRFTISNDNSKNTLYLQMNSLRAEDTAVYYCANYDILTGHSFEYWGQGTLVTVSS VL: AIQMTQSPSSLSASVGDRVTITCRASQGIRNDLGWYQQKPGKAPELLIYAASRLPSGVPLRFSGSGSGTDFTLTISSLQPEDVATYYCLQDYNYPFTFGPGTKVDIKR', 2.9);

**Query** Look up EC50 for this binder: REGN7548 (antibody, human IgG4 S228P, kappa, V domains shown, also called mAb38090) VH: QVQLVQSGAEVKKPGASVKVSCKASGYTFTSYYIHWVRQAPGQGLEWMGIISPSDGYTSYAQNFQGRVTMTRDTSTNTVYMDLSSLRSEDTAMFYCARNDPLTTVALDYWGQGTLVTVSS VL: AIQMTQSPSSLSASVGDRVTITCRASQGIRYDLGWFQQKPGKAPKLLIHAASSLQSGVPSRFSGSGSGTDFTLTISSLQPEDFATYYCLQDYNYPFTFGQGTKLEIKR
**Result** 1.2

**Query** Follow-up entry: H4H22034 (antibody, human IgG4 S228P, kappa, V domains shown, also called H4H22034N; mAb22034) VH: EVQLLESGGDLVQPGGSLRLSCAASGFTFSDYAMIWVRQTPGKGLEWVSGISGGGGSTDYADSVKGRFTTSRDNVKNAMYLQMNSLRTEDTAVYYCAREDQLPSYHNYYGMDVWGQGTTVTVSS VL: DIQMTQSPSSVSASVGDRVTITCRASQGINNYLAWFQQKPGKAPKSLIYGASSLQSGVPSKFSGSRSGIDFTLTISSLQPEDFATYYCQQYNSYPYTFGQGTKLEIKR
**Result** 0.67
